Sourced from patent US6403607B1

Target: H/K-ATPase (Oryctolagus cuniculus, UniProt P27112)
Sequence (P27112 whole entry): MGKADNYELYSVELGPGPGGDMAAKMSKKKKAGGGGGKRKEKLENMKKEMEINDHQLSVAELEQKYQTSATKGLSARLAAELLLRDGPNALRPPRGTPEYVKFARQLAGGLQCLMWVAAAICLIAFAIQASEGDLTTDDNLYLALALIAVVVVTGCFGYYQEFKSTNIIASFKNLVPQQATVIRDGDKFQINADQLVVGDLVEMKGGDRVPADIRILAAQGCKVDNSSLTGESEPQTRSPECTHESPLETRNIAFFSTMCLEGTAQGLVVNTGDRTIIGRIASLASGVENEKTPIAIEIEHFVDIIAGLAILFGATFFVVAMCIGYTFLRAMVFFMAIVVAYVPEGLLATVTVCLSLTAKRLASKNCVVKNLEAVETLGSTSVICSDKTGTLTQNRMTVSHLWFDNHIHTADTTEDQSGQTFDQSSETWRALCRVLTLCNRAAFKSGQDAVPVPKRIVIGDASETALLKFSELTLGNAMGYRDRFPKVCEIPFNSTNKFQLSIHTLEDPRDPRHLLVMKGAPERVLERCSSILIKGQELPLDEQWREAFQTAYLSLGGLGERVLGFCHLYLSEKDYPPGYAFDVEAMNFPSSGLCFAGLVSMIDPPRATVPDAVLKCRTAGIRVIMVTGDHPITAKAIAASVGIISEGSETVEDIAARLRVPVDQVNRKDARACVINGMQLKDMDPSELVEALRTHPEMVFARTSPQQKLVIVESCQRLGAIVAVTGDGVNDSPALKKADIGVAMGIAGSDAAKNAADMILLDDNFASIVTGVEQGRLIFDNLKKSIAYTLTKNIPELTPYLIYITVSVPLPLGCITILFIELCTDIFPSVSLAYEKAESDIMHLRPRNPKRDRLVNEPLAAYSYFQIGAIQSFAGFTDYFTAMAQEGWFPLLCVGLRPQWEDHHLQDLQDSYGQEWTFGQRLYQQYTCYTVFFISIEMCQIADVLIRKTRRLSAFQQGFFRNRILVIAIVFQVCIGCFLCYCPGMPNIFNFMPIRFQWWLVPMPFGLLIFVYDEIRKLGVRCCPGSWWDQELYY
Sequence (P18597 whole entry partner): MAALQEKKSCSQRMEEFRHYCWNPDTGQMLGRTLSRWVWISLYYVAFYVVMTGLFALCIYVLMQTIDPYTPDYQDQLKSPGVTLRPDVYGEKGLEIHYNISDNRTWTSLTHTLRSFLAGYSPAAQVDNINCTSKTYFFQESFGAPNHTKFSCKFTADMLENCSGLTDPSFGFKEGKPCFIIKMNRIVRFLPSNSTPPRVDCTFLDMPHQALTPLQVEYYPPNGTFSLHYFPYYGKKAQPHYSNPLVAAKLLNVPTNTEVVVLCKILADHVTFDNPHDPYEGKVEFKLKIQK
Experiment: H/K-ATPase inhibition
Conditions: pH 7.4, H/K-ATPase from rabbit gastric mucous membrane
pIC50: −log10 of the molar value.
Label condition met when pIC50 is at or above 4; otherwise label condition not met.

Task: Decide: pIC50 of CCCCCS(=O)(=O)N(CCOCCN)c1ccccc1NCCOc1ccc(Cl)cc1 [Example 27] >= 4?
Result: condition met

Task: Next record, please: NCCOCCN(c1ccccc1N(CCOc1ccc(Cl)cc1)Cc1ccccc1)S(=O)(=O)c1ccc(Cl)cc1 [Example 70]
Result: condition met

Task: Next record, please: CCCCCCCCS(=O)(=O)N(CCOCCN)c1ccccc1NCCOc1ccc(Cl)cc1 [Example 26]
Result: condition met

Further cases:
Task: Decide: pIC50 of NCCOCCN(c1ccccc1NCCOc1ccc(Cl)cc1)S(=O)(=O)c1ccc(Cl)cc1.O=C(O)C(O)C(O)C(=O)O [Example 4] >= 4?
Result: condition met

Task: Next record, please: CC(C)S(=O)(=O)N(CCOCCN)c1ccccc1NCCOc1ccc(Cl)cc1 [Example 25]
Result: condition not met

Task: Next record, please: CCCCS(=O)(=O)N(CCOCCN)c1ccccc1NCCOc1ccc(Cl)cc1 [Example 21]
Result: condition met

Task: Next record, please: CS(=O)(=O)N(CCOCCN)c1ccccc1NCCOc1ccc(Cl)cc1 [Example 22]
Result: condition not met
